Test: Open-label clinical pharmacokinetic study of oral XBD173 and etifoxine in healthy volunteers (plasma LC-MSMS)
Format: in vivo, human
Conditions: human, plasma, po, 50 mg, 50mg etifoxine single oral dose; 60 mins; Mean (SEM)

| compound | concentration at 60 min |
| --- | --- |
| CCNC1=Nc2ccc(Cl)cc2C(C)(c2ccccc2)O1 (stereo not shown) | 8.2 ng/mL |

* * *

Assay: Open-label clinical pharmacokinetic study of oral XBD173 and etifoxine in healthy volunteers (plasma LC-MSMS)
Type: in vivo, human
Details: human, plasma, po, 50 mg, 50mg etifoxine single oral dose; 120 mins; participant 4

| compound | concentration at 120 min / ng/mL |
| --- | --- |
| CCNC1=Nc2ccc(Cl)cc2C(C)(c2ccccc2)O1 (stereo not shown) [etifoxine] | 30.7 |
